Reference source for all entries: patent US20120328625A1

Target: Shh-N in conditioned medium (human, UniProt Q15465 24-197, N-terminal palmitoyl modification; lacks the C-terminal cholesterol moiety)
Experiment: cell-based or functional assay
metricName: % Inhibition of Gli1 reporter, Conditioned Media N = 1, 20 µg/ml (%)

1. 1H12 (antibody, V domains shown, fully human XenoMouse hybridoma antibody; tested as hybridoma supernatant and as purified antibody; also called MAb 1H12) VH: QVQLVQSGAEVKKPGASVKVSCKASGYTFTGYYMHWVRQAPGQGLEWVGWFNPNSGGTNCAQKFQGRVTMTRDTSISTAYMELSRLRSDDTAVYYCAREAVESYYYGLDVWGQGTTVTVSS VL: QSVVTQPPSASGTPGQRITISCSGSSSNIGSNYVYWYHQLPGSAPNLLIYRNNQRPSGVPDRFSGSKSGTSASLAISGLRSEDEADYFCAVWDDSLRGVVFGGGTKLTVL | -5
2. 3H8 (antibody, V domains shown, fully human XenoMouse hybridoma antibody; also called MAb 3H8) VH: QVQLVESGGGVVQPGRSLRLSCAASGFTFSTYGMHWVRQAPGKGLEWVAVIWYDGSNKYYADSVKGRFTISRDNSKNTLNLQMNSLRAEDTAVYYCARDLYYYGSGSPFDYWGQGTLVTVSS VL: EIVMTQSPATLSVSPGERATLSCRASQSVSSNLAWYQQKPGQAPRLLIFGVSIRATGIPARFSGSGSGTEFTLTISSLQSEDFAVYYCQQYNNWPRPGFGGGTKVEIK | 37
3. 4B6 (antibody, V domains shown, fully human XenoMouse hybridoma antibody; tested as hybridoma supernatant and as purified antibody; also called MAb 4B6) VH: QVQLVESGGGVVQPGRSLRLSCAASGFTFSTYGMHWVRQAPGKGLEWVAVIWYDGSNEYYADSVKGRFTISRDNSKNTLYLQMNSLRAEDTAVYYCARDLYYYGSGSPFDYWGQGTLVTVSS VL: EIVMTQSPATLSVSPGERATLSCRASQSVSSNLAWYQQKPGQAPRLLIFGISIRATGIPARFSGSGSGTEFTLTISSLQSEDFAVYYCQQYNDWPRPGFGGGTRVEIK | 73
4. 1C8 (antibody, V domains shown, fully human XenoMouse hybridoma antibody; tested as hybridoma supernatant and as purified antibody; also called MAb 1C8) VH: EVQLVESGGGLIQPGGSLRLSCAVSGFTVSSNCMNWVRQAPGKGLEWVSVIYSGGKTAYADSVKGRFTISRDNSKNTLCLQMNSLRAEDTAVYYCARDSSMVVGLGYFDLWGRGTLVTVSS VL: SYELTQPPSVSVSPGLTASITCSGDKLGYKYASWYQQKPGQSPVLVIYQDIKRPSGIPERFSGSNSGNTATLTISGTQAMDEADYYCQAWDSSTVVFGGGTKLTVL | -1
5. 1A12 (antibody, V domains shown, fully human XenoMouse hybridoma antibody; tested as hybridoma supernatant and as purified antibody; also called MAb 1A12) VH: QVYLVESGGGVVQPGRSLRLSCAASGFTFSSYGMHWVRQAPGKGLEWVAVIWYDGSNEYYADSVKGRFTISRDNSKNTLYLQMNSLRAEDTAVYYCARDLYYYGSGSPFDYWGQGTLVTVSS VL: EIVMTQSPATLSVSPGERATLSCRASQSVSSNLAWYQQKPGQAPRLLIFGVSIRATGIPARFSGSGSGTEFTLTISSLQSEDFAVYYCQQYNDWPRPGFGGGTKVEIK | 18
